The origin of these recorded values is ChEMBL document CHEMBL1629563.

Assay: Drug excretion in healthy human urine assessed as unchanged drug in high fat fed healthy human at 50 mg, po administered as single dose coadministered with 100 mg of ritonavir by high-pressure liquid chromatography-tandem mass spectrometry/mass spectrometry method
Format: ADME, organism-based
Conditions: read-out: Drug uptake
measured.quantity: dose excreted

Return reported dose excreted. Input compound: CCN1c2ncc(CCOc3cc[n+]([O-])c4ccccc34)cc2C(=O)N(C)c2cccnc21
4.62%

----------
Test: Mean residence time in healthy human at 62.5 mg, po administered as single dose coadministered with 100 mg of ritonavir
Assay type: ADME, organism-based
Conditions: in vivo
measured.quantity: MRT (h)
Note: unit h is implicit; provide only the numeric part.

Kindly indicate its recorded MRT. Item: CCN1c2ncc(CCOc3cc[n+]([O-])c4ccccc34)cc2C(=O)N(C)c2cccnc21
14
